IC50 listing for selected sequences.
biological target: A*2601 (Homo sapiens, UniProt P04439, A114D/A173T/A270S/D101N/D185E/E277Q/E87N/F33Y/G231S/I121R/I218V/K168Q/L180W/L300P/L318F/P208A/P217A/Q86R/Q94H/R138Q/S129P/T187R/T323A/T345S/V100A/V358M); assay: biochemical; type: binding
No end group written: not given here.
Your answer is read as nM, so omit the unit and give the number.

| Query Sequence | IC50, nM |
| --- | --- |
| STDAALYWY [Peptide 1593.02] | 24 |
| LFDQLIHMYY [Peptide 9018.0030] | 2410 |
| LADQLIHMYY [Peptide 9015.0187] | 1780 |
| EISNYTDTIY [Peptide 9015.0157] | 32 |
| GLADQLIHLY [Peptide 9015.0185] | 426 |

The measured IC50 associated with SIEWRLRRY [Peptide 9015.0035] reads 164

The measured IC50 associated with SSNTKANILY [Peptide 1580.08] reads 579

The measured IC50 associated with STEWRLRRY [Peptide 9018.0019] reads 320

The measured IC50 associated with HTARELHPEY [Peptide 9018.0004] reads 12

The measured IC50 associated with GYADQLIHLY [Peptide 9018.0025] reads 4400

The measured IC50 associated with YTDGPGTRY [Peptide 9018.0002] reads 28

The measured IC50 associated with LYDQLIHLY [Peptide 9018.0028] reads 69

The measured IC50 associated with VTIEWRLRRY [Peptide 9018.0015] reads 33

The measured IC50 associated with GTADQLIHLY [Peptide 9018.0023] reads 68

The measured IC50 associated with ISNYTDTIY [Peptide 9015.0007] reads 6100

The measured IC50 associated with VTTIVYIEY [Peptide 9018.0041] reads 448

The measured IC50 associated with ETWETWWTDY [Peptide 9015.0169] reads 2.3

The measured IC50 associated with VSIEWRLRRY [Peptide 9015.0181] reads 363

The measured IC50 associated with SYEWRLRRY [Peptide 9018.0036] reads 3220

The measured IC50 associated with HIGPGRAFY [Peptide 1595.03] reads 58

====

biological target: DRB1*0901 (Homo sapiens, UniProt P01903+P01911, A100R/A103E/D57H/D86V/F55Y/F60I/F76Y/I96F/K127E/L162R/M171V/P40D/Q125H/Q99R/R33Q/R42F/S133A/S66N/T210M/V115G/W38K/Y107V/Y59G/Y89S); assay: biochemical; assay type: binding
Attribute Measured: pIC50
Answer as the number alone; pIC50 is minus log10 of concentration in mol/L.

The measured pIC50 associated with CC(C)C[C@H](NC(=O)[C@@H](NC(=O)[C@H](Cc1c[nH]c2ccccc12)NC(=O)[C@H](CC(=O)O)NC(=O)[C@H](CCC(=O)O)NC(=O)[C@@H](NC(=O)[C@H](CCCCN)NC(=O)[C@H](Cc1ccc(O)cc1)NC(=O)[C@H](CCCNC(=N)N)NC(=O)[C@H](CO)NC(=O)[C@@H](N)CCC(N)=O)[C@@H](C)O)[C@@H](C)O)C(=O)N[C@@H](CCC(N)=O)C(=O)N[C@@H](CC(=O)O)C(=O)N[C@H](C(=O)N[C@@H](CS)C(=O)O)[C@@H](C)O [Peptide 90.0179] reads 5.71
